Data provenance: patent US20170210813A1

Target: T1, Macaca fascicularis PDGFRb.mmh (Macaca fascicularis)
T1 construct: Soluble monomeric construct; also called mfPDGFRb.mmh
T1 chain: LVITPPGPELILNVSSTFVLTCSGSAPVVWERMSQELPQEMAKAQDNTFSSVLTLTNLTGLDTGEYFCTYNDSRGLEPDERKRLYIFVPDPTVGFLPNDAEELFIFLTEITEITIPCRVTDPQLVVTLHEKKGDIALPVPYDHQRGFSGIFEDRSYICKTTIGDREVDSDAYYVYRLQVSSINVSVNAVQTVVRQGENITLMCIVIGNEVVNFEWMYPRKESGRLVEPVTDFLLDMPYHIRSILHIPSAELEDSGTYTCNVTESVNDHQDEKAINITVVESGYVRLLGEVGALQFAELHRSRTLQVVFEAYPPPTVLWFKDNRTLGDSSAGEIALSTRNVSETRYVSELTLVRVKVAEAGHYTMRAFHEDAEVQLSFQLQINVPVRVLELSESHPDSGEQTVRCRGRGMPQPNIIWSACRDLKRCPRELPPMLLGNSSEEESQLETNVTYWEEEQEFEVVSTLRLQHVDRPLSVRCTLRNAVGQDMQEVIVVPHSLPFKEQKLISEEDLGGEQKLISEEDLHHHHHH
Test: SPR, mAb captured, 25 C
koff values, listed per item
The reply should be a number in s⁻¹, with the unit left off.

# example entries with known answers
binder | property | unit_spec | observed_result
H4H3098S (antibody, human IgG4, V domains shown, human IgG4 Fc (H4H prefix)) VH: EVQLVESGGGVVQPGRSLRLSCAASGFTFSNYGMHWVRQAPGKGLEWVTVIWYDGSYKYYADSVKGRFTISRDNSKNRLYLQMNSLRAEDTAVYYCARGELGDAFDIWGQGTMVTVSS VL: DIQMTQSPSTLSASVGDRLTITCRASQSISTWLAWYQQKPGKAPTLLIYKASSLESGVPSRFSGSGSGTDFTLTISSLQPDDFATYYCQQYKTSWTFGQGTKLEIKR | koff | s⁻¹ | 0.0094
H4H3095S (antibody, human IgG4, V domains shown, human IgG4 Fc (H4H prefix)) VH: EVQLVESGGGLVQPGGSLRLSCGASGFTFSSYWMTWVRQAPGKGLEWVGNINQDGSEKYSVDSVKGRFTISRDNAKNSLYLQMNRVRAEDTAVYYCSRDLVPPRQGDNYYYFGMDVWGLGTTVTVSS VL: DIQMTQSPSTLSASVGDRVIITCRASQNINNWLAWYQQQPGKAPKLLIYEASSLESGVPSRFSGSGSGTEFTLTIGSLQPDDFATYYCQHYNSYSRTFGQGTKVDIK | koff | s⁻¹ | 0.00175

# context switch: different binder, same koff
Return reported koff. Input binder: H2M3373N (antibody, V domains shown, mouse Fc (H2M prefix; isotype not spelled out)) VH: EVQLRDSGGGLVQPGGSLRLSCVASGFTFSSYWMSWVRQAPGKGLEWVVNINRDGSEKYYVDSVKGRFIISRDNTKNSLYLQMESLRAEDTAVYYCARDPPYHLYGMDVWGQGTTVTVSS VL: DIQMTQSPSSLSASVGDRVTITCRTSQGIRVDLAWYQQKPGKAPERLIYAASSLQSGVPSRFSGGGSGTEFTLTVSSLQPEDFATYYCLQHHNFPYTFGQGTKLEIK
0.00238
